STUDY_SYSTEM: Receptor-interacting serine/threonine-protein kinase 2 (Homo sapiens)
RUN_PARAMETERS: at 1 µM
Description: Millipore: Percentage of residual kinase activity of RIPK2 at 1uM relative to control. Control inhibitor: Phosphoric acid* at 0.3uM. Buffer: 8 mM MOPS pH 7.0, 0.2 mM EDTA
Each item that follows carries a reported residual activity.
PROPERTY: residual activity (%)

1. O=C1Cc2c([nH]c3ccc(Br)cc23)-c2ccccc2N1 :: 49
2. NC(=O)c1ccc(-c2nc(-c3ccc4c(c3)OCCO4)c(-c3ccccn3)[nH]2)cc1 :: 55
3. NC(=O)Nc1sc(-c2ccc(F)cc2)cc1C(N)=O :: 67
4. CCCCc1c(-c2ccc(OC)cc2)[nH]c2nccnc12 :: 67
5. O=C(CCCc1ccc(-c2ccccc2F)cc1)Nc1ccc(O)cc1 :: 94
6. O=C1Nc2ccc(Cl)cc2/C1=C/c1cc(Cl)c(O)c(Cl)c1 :: 32
7. CCOC(=O)c1c(C)[nH]c(/C=C2\C(=O)Nc3ccccc32)c1C :: 96
8. CCN(CC)CCNC(=O)c1c(C)[nH]c(/C=C2\C(=O)Nc3ccc(Cl)cc32)c1C :: 62
9. Oc1cccc(-c2nc(N3CCOCC3)c3oc4ncccc4c3n2)c1 :: 89
10. COc1ccc(-c2cnc3c(-c4ccsc4)cnn3c2)cc1 :: 99
11. CCN1/C(=C/C(C)=O)Sc2ccc(OC)cc21 :: 71

###

Each item that follows carries a reported residual activity.
STUDY_SYSTEM: TGF-beta receptor type-1 (Homo sapiens)
RUN_PARAMETERS: at 10 µM
Description: Millipore: Percentage of residual kinase activity of TGFBR1 at 10uM relative to control. Control inhibitor: Phosphoric acid* at 0.3uM. Buffer: 8 mM MOPS pH 7.0, 0.2 mM EDTA, 1 mM MnCl2
PROPERTY: residual activity (%)

1. CC(C)N(CCC(=O)c1ccc2ccccc2c1)Cc1ccccc1 :: 74
2. N#C/C(=C1/Nc2ccccc2S1)c1ccnc(NCCc2cccnc2)n1 :: 69
3. CCCCc1c(-c2ccc(OC)cc2)[nH]c2nccnc12 :: 73
4. O=C1Nc2ccccc2/C1=C\c1c(Cl)[nH]c2ccccc12 :: 74
5. CC(C)c1nn(-c2c(Cl)cccc2Cl)c2nc(Cc3ccc(OCCO)cc3)[nH]c(=O)c12 :: 86
6. COc1ccc(Cl)cc1NC(=O)Nc1cc(C)nc2ccccc12 :: 94
7. Cn1c2ccccc2c2c3c(c4c5ccccc5n(CCC#N)c4c21)CNC3=O :: 63
8. Nc1nc(Nc2ccc(S(N)(=O)=O)cc2)nn1C(=O)c1c(F)cccc1F :: 62
9. COc1ccc(COc2ccc(Cc3cnc(N)nc3N)cc2OC)cc1 :: 77
10. COc1cc2nccc(Oc3ccc(NC(=S)NC(=O)c4ccccc4C)cc3)c2cc1OC :: 77
11. O=C(c1ccccc1)c1ccc(N2CCOCC2)cc1O :: 99
12. O=C(CCCc1ccc(-c2ccccc2F)cc1)Nc1ccc(O)cc1 :: 112
13. O=C1Nc2ccc(Cl)cc2/C1=C/c1cc(Cl)c(O)c(Cl)c1 :: 42
14. O=c1c(-c2ccc(F)cc2)c(-c2ccncc2)[nH]n1-c1ccc(Cl)cc1 :: 30
15. O=c1cc(N2CCNCC2)oc2c(-c3ccccc3)cccc12 :: 85
16. O=C1C(Cl)=C(N2C(=O)CCC2=O)C(=O)c2ccccc21 :: 90
17. O=C(O)/C=C/c1cc(Br)c(Br)c(Br)c1Br :: 97
18. c1ccc(-c2cnc(Nc3ccc(OCCN4CCCC4)cc3)s2)cc1 :: 74
19. COc1cc2ncnc(Nc3cccc(Cl)c3)c2cc1OC :: 103
20. Oc1cccc(-c2nc(N3CCOCC3)c3oc4ncccc4c3n2)c1 :: 91
21. Cn1sc(=O)n(Cc2ccccc2)c1=O :: 72
22. COc1cc2c(cc1OC)-c1n[nH]c(Nc3cccc(F)c3)c1C2 :: 66
23. Nc1ncnc2c1c(-c1ccc(Oc3ccccc3)cc1)cn2C1CCCC1 :: 72
